- protocolDescription: Solubility of crystalline ruxolitinib di-hydrate in organic solvents
- Format: physicochemical
- condition: organic solvent or mixture, thermodynamic from solid; Methanol (MeOH)
quantityKind: solubility

Sample N#CC[C@H](C1CCCC1)n1cc(-c2ncnc3[nH]ccc23)cn1 [Ruxolitinib Di-hydrate] — what was its solubility?
> 500 mg/mL

----------
- protocolDescription: Aqueous solubility of crystalline ruxolitinib di-hydrate
- Type: physicochemical
- condition: 20 °C, aqueous buffer, thermodynamic from solid; pH 7.4 (PBS), 20-25° C.
quantityKind: solubility (µg/mL)
Write down the numeric answer in µg/mL and omit the unit.

Given the entry N#CC[C@H](C1CCCC1)n1cc(-c2ncnc3[nH]ccc23)cn1 [Ruxolitinib Di-hydrate] , report its measured solubility.
100

----------
- protocolDescription: Aqueous solubility of crystalline ruxolitinib di-hydrate
- Format: physicochemical
- condition: acetate buffer, 20 °C, aqueous buffer, thermodynamic from solid; pH 5.5 (Acetate), 20-25° C.
quantityKind: solubility (mg/mL)
Dear colleague, please return just the value in mg/mL, with no unit written.

Please look up its solubility: N#CC[C@H](C1CCCC1)n1cc(-c2ncnc3[nH]ccc23)cn1 [Ruxolitinib Di-hydrate]
0.0935

----------
- protocolDescription: Aqueous solubility of crystalline ruxolitinib di-hydrate
- Assay type: physicochemical
- condition: KHP buffer, 20 °C, aqueous buffer, thermodynamic from solid; pH 3.0 (KHP), 20-25° C.
quantityKind: solubility (µg/mL)
Expressed in µg/mL, but write only the number.

# input molecule: N#CC[C@H](C1CCCC1)n1cc(-c2ncnc3[nH]ccc23)cn1 [Ruxolitinib Di-hydrate] ; wanted: its solubility
1570

----------
- protocolDescription: Solubility of crystalline ruxolitinib di-hydrate in organic solvents
- Format: physicochemical
- condition: acetone, organic solvent or mixture, thermodynamic from solid
quantityKind: solubility

Item N#CC[C@H](C1CCCC1)n1cc(-c2ncnc3[nH]ccc23)cn1 [Ruxolitinib Di-hydrate] has what recorded solubility?
> 500 mg/mL

----------
- protocolDescription: Aqueous solubility of crystalline ruxolitinib di-hydrate
- Assay type: physicochemical
- condition: 20 °C, thermodynamic from solid; Water, 20-25° C.
quantityKind: solubility (µg/mL)
Value expressed in µg/mL; do not type the unit.

What value of solubility has been recorded for this entry: N#CC[C@H](C1CCCC1)n1cc(-c2ncnc3[nH]ccc23)cn1 [Ruxolitinib Di-hydrate]
111

----------
- protocolDescription: Aqueous solubility of crystalline ruxolitinib di-hydrate
- Format: physicochemical
- condition: aqueous KHP solution, 20 °C, aqueous buffer, thermodynamic from solid; pH 5.0 (KHP), 20-25° C.
quantityKind: solubility (µg/mL)
Numbers only; they are read as µg/mL.

// returns reported solubility for input N#CC[C@H](C1CCCC1)n1cc(-c2ncnc3[nH]ccc23)cn1 [Ruxolitinib Di-hydrate]
147

----------
- protocolDescription: Aqueous solubility of crystalline ruxolitinib di-hydrate
- Assay type: physicochemical
- condition: 20 °C, simulated gastric fluid, thermodynamic from solid; SGF (pH 1.6), 20-25° C.
quantityKind: solubility

// query solubility value for entry N#CC[C@H](C1CCCC1)n1cc(-c2ncnc3[nH]ccc23)cn1 [Ruxolitinib Di-hydrate]
> 11 mg/mL

----------
- protocolDescription: Aqueous solubility of crystalline ruxolitinib di-hydrate
- Type: physicochemical
- condition: HCl solution, 20 °C, simulated gastric fluid, thermodynamic from solid; pH 2.0 (HCl), 20-25° C.
quantityKind: solubility (µg/mL)
A number alone suffices; assume µg/mL.

Item N#CC[C@H](C1CCCC1)n1cc(-c2ncnc3[nH]ccc23)cn1 [Ruxolitinib Di-hydrate] has what recorded solubility?
3470

----------
- protocolDescription: Solubility of crystalline ruxolitinib di-hydrate in organic solvents
- Type: physicochemical
- condition: organic solvent or mixture, thermodynamic from solid; Isopropanol (IPA)
quantityKind: solubility

Recorded solubility of N#CC[C@H](C1CCCC1)n1cc(-c2ncnc3[nH]ccc23)cn1 [Ruxolitinib Di-hydrate] , please.
> 500 mg/mL

----------
- protocolDescription: Aqueous solubility of crystalline ruxolitinib di-hydrate
- Type: physicochemical
- condition: aqueous acetate solution, 20 °C, aqueous buffer, thermodynamic from solid; pH 5.0 (Acetate), 20-25° C.
quantityKind: solubility
The answer consists of two parts: a number and, after it, its unit.

What does the data say about its solubility? Entry: N#CC[C@H](C1CCCC1)n1cc(-c2ncnc3[nH]ccc23)cn1 [Ruxolitinib Di-hydrate]
296 µg/mL

Source of measurements: patent US20250270221A1
